# System: blood cell populations
# Procedure summary: Effect of oral treatment on blood cell populations and body weight in the MX-1 study (Example 22)
# Format: in vivo, nu/nu mice
# Condition: Day 4; single oral bolus Day 1; mg/kg: 0499 80, 0550 73, 0611 113, 0748 200
Below, each of the compounds is paired with its reported Neutrophils (K/µL) value.
Answer in K/µL, number only, no unit symbol.

Item CCC(=O)O[C@H]1C(=O)[C@@]2(C)[C@H]([C@H](OC(=O)c3ccccc3)[C@]3(O)C[C@H](OC(=O)[C@H](O)[C@H](C=C(C)C)NC(=O)OC(C)(C)C)C(C)=C1C3(C)C)[C@]1(OC(C)=O)CO[C@@H]1C[C@@H]2O with blood cell populations - Neutrophils (K/µL)?
0.077

###

Below, each of the compounds is paired with its reported Survivors value.
# System: MX-1 carcinoma
# Condition: number of 6 mice; i.v. qd x 1 at MTD, Day 60; doses as in E17
// response body must contain only the number

Here's what some known entries look like.
>  <Smiles notation>
CCC(=O)O[C@H]1C(=O)[C@@]2(C)[C@H]([C@H](OC(=O)c3ccccc3)[C@]3(O)C[C@H](OC(=O)[C@H](O)[C@@H](NC(=O)c4ccccc4)c4ccco4)C(C)=C1C3(C)C)[C@]1(OC(C)=O)CO[C@@H]1C[C@@H]2O

>  <Survivors>
5

$$$$
>  <Smiles notation>
CCCC(=O)O[C@H]1C(=O)[C@@]2(C)[C@H]([C@H](OC(=O)c3ccccc3)[C@]3(O)C[C@H](OC(=O)[C@H](O)[C@@H](NC(=O)OC(C)(C)C)c4ccco4)C(C)=C1C3(C)C)[C@]1(OC(C)=O)CO[C@@H]1C[C@@H]2O

>  <Survivors>
6

$$$$
>  <Smiles notation>
CCCC(=O)O[C@H]1C(=O)[C@@]2(C)[C@H]([C@H](OC(=O)c3ccccc3)[C@]3(O)C[C@H](OC(=O)[C@H](O)[C@H](C=C(C)C)NC(=O)OC(C)(C)C)C(C)=C1C3(C)C)[C@]1(OC(C)=O)CO[C@@H]1C[C@@H]2O

>  <Survivors>
3

$$$$

Entry CCC(=O)O[C@H]1C(=O)[C@@]2(C)[C@H]([C@H](OC(=O)c3ccccc3)[C@]3(O)C[C@H](OC(=O)[C@H](O)[C@@H](NC(=O)c4ccccc4)c4ccoc4)C(C)=C1C3(C)C)[C@]1(OC(C)=O)CO[C@@H]1C[C@@H]2O has what Survivors?
2

Entry CCC(=O)O[C@H]1C(=O)[C@@]2(C)[C@H]([C@H](OC(=O)c3ccccc3)[C@]3(O)C[C@H](OC(=O)[C@H](O)[C@@H](NC(=O)OC(C)(C)C)c4ccccn4)C(C)=C1C3(C)C)[C@]1(OC(C)=O)CO[C@@H]1C[C@@H]2O has what Survivors?
6

Entry CCC(=O)O[C@H]1C(=O)[C@@]2(C)[C@H]([C@H](OC(=O)c3ccccc3)[C@]3(O)C[C@H](OC(=O)[C@H](O)[C@@H](NC(=O)c4ccccc4)C4CC4)C(C)=C1C3(C)C)[C@]1(OC(C)=O)CO[C@@H]1C[C@@H]2O has what Survivors?
5

###

# Test system: HCT116 carcinoma
# Condition: number of 5 mice; i.v. qd x 1 at MTD, Day 60; mg/kg: Taxol 36 (split doses), 0503 72.6, 0536 49, 0663 159, 0670 123, 0687 159, 0706 108, 0908 159, 0947 76.9, 0951 72.6, 0983 72.6, 0999 49, 1003 49, 1011 108
Metric name: Toxic Deaths
// response body must contain only the number

Here's what some known entries look like.
>  <Compound>
CCCC(=O)O[C@H]1C(=O)[C@@]2(C)[C@H]([C@H](OC(=O)c3ccccc3)[C@]3(O)C[C@H](OC(=O)[C@H](O)[C@@H](NC(=O)OC(C)(C)C)c4ccccn4)C(C)=C1C3(C)C)[C@]1(OC(C)=O)CO[C@@H]1C[C@@H]2O [Compound 0951]

>  <Study system>
HCT116 carcinoma

>  <Metric name>
Toxic Deaths

>  <Observed result>
0

$$$$
>  <Compound>
CC(=O)O[C@H]1C(=O)[C@@]2(C)[C@H]([C@H](OC(=O)c3ccccc3)[C@]3(O)C[C@H](OC(=O)[C@H](O)[C@@H](NC(=O)c4ccccc4)c4ccccc4)C(C)=C1C3(C)C)[C@]1(OC(C)=O)CO[C@@H]1C[C@@H]2O [Taxol, paclitaxel, reference compound]

>  <Study system>
HCT116 carcinoma

>  <Metric name>
Toxic Deaths

>  <Observed result>
0

$$$$
>  <Compound>
CCCC(=O)O[C@H]1C(=O)[C@@]2(C)[C@H]([C@H](OC(=O)c3ccccc3)[C@]3(O)C[C@H](OC(=O)[C@H](O)[C@@H](NC(=O)OC(C)(C)C)c4ccsc4)C(C)=C1C3(C)C)[C@]1(OC(C)=O)CO[C@@H]1C[C@@H]2O [Compound 1011]

>  <Study system>
HCT116 carcinoma

>  <Metric name>
Toxic Deaths

>  <Observed result>
0

$$$$
>  <Compound>
CCC(=O)O[C@H]1C(=O)[C@@]2(C)[C@H]([C@H](OC(=O)c3ccccc3)[C@]3(O)C[C@H](OC(=O)[C@H](O)[C@@H](NC(=O)c4ccccc4)C4CC4)C(C)=C1C3(C)C)[C@]1(OC(C)=O)CO[C@@H]1C[C@@H]2O [Compound 0706]

>  <Study system>
HCT116 carcinoma

>  <Metric name>
Toxic Deaths

>  <Observed result>
0

$$$$

Entry CCCC(=O)O[C@H]1C(=O)[C@@]2(C)[C@H]([C@H](OC(=O)c3ccccc3)[C@]3(O)C[C@H](OC(=O)[C@H](O)[C@@H](NC(=O)OC(C)(C)C)c4ccco4)C(C)=C1C3(C)C)[C@]1(OC(C)=O)CO[C@@H]1C[C@@H]2O [Compound 0983] has what Toxic Deaths?
2

Entry CCCC(=O)O[C@H]1C(=O)[C@@]2(C)[C@H]([C@H](OC(=O)c3ccccc3)[C@]3(O)C[C@H](OC(=O)[C@H](O)[C@H](C=C(C)C)NC(=O)OC(C)(C)C)C(C)=C1C3(C)C)[C@]1(OC(C)=O)CO[C@@H]1C[C@@H]2O [Compound 0947] has what Toxic Deaths?
0

Entry CCC(=O)O[C@H]1C(=O)[C@@]2(C)[C@H]([C@H](OC(=O)c3ccccc3)[C@]3(O)C[C@H](OC(=O)[C@H](O)[C@@H](NC(=O)c4ccccc4)c4ccco4)C(C)=C1C3(C)C)[C@]1(OC(C)=O)CO[C@@H]1C[C@@H]2O [Compound 0663] has what Toxic Deaths?
1

Entry CCCC(=O)O[C@H]1C(=O)[C@@]2(C)[C@H]([C@H](OC(=O)c3ccccc3)[C@]3(O)C[C@H](OC(=O)[C@H](O)[C@@H](NC(=O)OC(C)(C)C)c4ccoc4)C(C)=C1C3(C)C)[C@]1(OC(C)=O)CO[C@@H]1C[C@@H]2O [Compound 0999] has what Toxic Deaths?
0

Entry CCC(=O)O[C@H]1C(=O)[C@@]2(C)[C@H]([C@H](OC(=O)c3ccccc3)[C@]3(O)C[C@H](OC(=O)[C@H](O)[C@@H](NC(=O)OC(C)(C)C)c4ccccn4)C(C)=C1C3(C)C)[C@]1(OC(C)=O)CO[C@@H]1C[C@@H]2O [Compound 0503] has what Toxic Deaths?
0

Entry CCCC(=O)O[C@H]1C(=O)[C@@]2(C)[C@H]([C@H](OC(=O)c3ccccc3)[C@]3(O)C[C@H](OC(=O)[C@H](O)[C@@H](NC(=O)OC(C)(C)C)c4cccs4)C(C)=C1C3(C)C)[C@]1(OC(C)=O)CO[C@@H]1C[C@@H]2O [Compound 1003] has what Toxic Deaths?
0
